Kindly state log10(Ki) for each of the entries shown.
# measurement.target: 5-hydroxytryptamine receptor 2A (Homo sapiens)
# Sequence (P28223 whole entry): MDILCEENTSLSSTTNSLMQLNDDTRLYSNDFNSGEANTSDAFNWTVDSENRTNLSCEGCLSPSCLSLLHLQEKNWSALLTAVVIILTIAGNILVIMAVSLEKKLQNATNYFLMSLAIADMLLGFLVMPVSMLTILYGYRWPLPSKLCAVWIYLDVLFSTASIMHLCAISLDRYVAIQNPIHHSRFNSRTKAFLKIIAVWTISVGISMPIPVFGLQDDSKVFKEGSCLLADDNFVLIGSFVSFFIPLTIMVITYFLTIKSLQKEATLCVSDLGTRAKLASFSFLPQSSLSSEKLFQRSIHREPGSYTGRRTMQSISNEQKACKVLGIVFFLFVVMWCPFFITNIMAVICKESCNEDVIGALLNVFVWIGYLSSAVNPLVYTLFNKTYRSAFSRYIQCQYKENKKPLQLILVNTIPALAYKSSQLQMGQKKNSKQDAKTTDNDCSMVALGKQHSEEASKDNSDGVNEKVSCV
# assay.details: biochemical
# Format: cell-based, HEK293
Values reflect log10 of reported Ki (µM).

Provide 5-hydroxytryptamine receptor 2A (Homo sapiens) log10(Ki) reading for CN1[C@@H](CC(=O)c2ccccc2)CCC[C@H]1C[C@H](O)c1ccccc1 [LOBELINE] . 0.87

Specify the recorded log10(Ki) for CCOC(=O)[C@@H]1CN(CCn2c(=O)[nH]c3ccccc3c2=O)CC[C@@H]1c1ccc(F)cc1 (racemic) , system: 5-hydroxytryptamine receptor 2A (Homo sapiens). 0.38

Give log10(Ki) for CNC(C)Cc1ccccc1 (configuration not stated) tested on 5-hydroxytryptamine receptor 2A (Homo sapiens). 2.00

Report measured log10(Ki) on 5-hydroxytryptamine receptor 2A (Homo sapiens); entry: CCOC(=O)[C@@H]1CN(CCn2c(=O)[nH]c3ccccc3c2=O)CC[C@H]1c1ccc(F)cc1 (racemic) -1.43

Find log10(Ki) for COc1cc2c(cc1OC)C1CC(O)C(CC(C)C)CN1CC2 (configuration not stated) on 5-hydroxytryptamine receptor 2A (Homo sapiens) and write it down. -2.17
